- targetSystem: human αvβ3 integrin (Homo sapiens, UniProt P05106+P06756)
- Sequence (P06756 31-992 limits assumed): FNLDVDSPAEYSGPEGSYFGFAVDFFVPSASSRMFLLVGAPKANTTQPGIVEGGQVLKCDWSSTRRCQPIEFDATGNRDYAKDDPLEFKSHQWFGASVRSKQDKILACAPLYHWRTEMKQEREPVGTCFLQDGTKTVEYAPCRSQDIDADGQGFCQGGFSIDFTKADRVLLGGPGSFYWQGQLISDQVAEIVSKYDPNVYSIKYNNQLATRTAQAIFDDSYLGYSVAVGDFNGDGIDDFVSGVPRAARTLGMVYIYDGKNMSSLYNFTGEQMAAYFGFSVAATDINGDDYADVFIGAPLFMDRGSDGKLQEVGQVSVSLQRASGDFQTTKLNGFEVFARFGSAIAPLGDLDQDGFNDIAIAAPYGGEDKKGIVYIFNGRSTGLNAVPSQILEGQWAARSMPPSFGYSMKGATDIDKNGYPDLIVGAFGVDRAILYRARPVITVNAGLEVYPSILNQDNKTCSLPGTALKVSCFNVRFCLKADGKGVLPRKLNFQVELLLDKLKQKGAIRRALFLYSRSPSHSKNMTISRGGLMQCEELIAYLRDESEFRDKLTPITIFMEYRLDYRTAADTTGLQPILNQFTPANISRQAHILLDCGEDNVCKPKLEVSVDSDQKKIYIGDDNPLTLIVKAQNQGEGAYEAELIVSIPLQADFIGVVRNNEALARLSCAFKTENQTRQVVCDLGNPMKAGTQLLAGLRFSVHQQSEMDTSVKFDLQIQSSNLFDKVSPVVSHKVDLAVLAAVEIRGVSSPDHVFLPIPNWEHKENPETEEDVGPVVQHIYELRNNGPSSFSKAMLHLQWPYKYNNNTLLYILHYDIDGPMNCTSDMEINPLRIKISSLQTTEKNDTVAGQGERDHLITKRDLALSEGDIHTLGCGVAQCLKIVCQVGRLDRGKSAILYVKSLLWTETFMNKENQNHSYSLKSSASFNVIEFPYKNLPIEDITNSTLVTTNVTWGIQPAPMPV
- Sequence (P05106 27-718 limits assumed): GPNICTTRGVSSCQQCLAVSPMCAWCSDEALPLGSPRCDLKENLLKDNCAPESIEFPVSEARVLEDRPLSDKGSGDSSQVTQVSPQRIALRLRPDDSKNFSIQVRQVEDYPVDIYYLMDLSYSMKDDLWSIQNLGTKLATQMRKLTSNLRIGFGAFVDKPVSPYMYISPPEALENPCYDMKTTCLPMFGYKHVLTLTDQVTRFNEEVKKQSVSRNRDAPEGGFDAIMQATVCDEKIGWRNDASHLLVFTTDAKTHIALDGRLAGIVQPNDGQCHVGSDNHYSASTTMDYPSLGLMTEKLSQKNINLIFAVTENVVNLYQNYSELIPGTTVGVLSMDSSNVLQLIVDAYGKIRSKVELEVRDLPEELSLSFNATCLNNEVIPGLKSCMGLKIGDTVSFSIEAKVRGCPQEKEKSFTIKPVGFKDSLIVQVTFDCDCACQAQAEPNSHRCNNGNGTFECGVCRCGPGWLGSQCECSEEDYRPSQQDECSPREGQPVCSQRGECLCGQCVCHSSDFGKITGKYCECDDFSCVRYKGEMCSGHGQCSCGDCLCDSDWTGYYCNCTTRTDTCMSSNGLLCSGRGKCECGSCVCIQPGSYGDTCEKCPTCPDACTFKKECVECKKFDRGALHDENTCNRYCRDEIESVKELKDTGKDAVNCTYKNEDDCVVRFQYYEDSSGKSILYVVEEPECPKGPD
- assayComment: ELISA-like solid-phase integrin binding assay
Entries and their IC50
Kindly provide the numeric value in nM only, without the unit symbol.

For reference, reported IC50 for N#CC(C#N)=Cc1ccc2c(c1)Sc1cc3ccc1N2CCCCCC(=O)N[C@@H](CCCNC(=N)N)C(=O)NCC(=O)N[C@@H](CC(=O)O)C(=O)N[C@@H](C(N)=O)Cc1c[nH]c2c-3cccc12 [12 g, c(RGDw(7‐3Ptz^2(CH(CN)2))] stands at 961

====

- targetSystem: human α5β1 integrin (Homo sapiens, UniProt P05556+P08648)
- Sequence (P08648 42-995 limits assumed): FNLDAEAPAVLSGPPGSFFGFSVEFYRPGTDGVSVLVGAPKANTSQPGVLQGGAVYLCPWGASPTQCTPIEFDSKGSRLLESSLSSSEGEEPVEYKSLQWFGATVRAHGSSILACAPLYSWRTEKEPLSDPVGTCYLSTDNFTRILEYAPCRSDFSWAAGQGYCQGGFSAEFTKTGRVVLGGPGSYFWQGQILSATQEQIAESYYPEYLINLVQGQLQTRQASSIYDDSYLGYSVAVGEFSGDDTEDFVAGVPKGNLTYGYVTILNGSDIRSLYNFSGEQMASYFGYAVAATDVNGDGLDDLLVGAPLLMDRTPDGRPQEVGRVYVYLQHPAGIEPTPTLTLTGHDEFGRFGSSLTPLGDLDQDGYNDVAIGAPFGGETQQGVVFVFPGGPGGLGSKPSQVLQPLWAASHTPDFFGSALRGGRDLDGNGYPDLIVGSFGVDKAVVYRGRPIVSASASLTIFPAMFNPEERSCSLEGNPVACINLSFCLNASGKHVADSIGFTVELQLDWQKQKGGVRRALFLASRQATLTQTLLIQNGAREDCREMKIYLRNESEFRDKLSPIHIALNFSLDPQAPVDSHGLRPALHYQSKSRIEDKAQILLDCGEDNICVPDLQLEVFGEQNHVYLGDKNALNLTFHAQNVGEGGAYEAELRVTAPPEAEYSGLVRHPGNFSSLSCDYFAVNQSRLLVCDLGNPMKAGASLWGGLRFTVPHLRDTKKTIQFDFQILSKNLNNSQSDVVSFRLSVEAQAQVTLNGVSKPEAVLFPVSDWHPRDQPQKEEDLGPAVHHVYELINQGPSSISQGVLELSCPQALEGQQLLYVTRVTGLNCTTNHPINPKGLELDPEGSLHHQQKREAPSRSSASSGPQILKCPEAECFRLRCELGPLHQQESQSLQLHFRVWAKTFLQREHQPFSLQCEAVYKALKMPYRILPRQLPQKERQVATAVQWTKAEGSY
- Sequence (P05556 21-728 limits assumed): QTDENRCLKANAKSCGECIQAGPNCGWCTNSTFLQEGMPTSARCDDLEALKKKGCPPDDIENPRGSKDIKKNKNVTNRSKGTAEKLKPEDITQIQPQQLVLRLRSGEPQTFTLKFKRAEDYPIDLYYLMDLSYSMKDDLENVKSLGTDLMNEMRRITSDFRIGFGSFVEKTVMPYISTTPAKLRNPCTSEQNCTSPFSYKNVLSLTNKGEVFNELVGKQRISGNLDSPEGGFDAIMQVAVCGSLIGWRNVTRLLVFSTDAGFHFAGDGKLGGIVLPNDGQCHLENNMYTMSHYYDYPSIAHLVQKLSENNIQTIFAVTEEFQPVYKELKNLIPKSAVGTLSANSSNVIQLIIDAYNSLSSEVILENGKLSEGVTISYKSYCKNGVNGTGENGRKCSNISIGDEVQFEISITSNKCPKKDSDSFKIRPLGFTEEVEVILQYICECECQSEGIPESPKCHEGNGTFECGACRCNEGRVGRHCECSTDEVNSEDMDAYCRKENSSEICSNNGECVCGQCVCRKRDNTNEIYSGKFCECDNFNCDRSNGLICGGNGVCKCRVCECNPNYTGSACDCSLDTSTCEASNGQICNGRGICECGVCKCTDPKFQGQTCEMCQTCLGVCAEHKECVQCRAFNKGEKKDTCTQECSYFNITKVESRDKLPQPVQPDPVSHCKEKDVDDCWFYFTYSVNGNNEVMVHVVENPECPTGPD
- assayComment: ELISA-like solid-phase integrin binding assay
Entries and their IC50
Kindly provide the numeric value in µM only, without the unit symbol.

1. N=C(N)NCCC[C@@H]1NC(=O)CN2c3ccccc3Sc3cc(ccc32)-c2cccc3c(c[nH]c23)C[C@@H](C(N)=O)NC(=O)[C@H](CC(=O)O)NC(=O)CNC1=O [12 c, c(RGDW(7‐3Ptz^1))] ... 2.22

--- query ---
For reference, reported IC50 for N=C(N)NCCC[C@@H]1NC(=O)CCCCCN2c3ccccc3Sc3cc(ccc32)-c2cccc3c(c[nH]c23)C[C@H](C(N)=O)NC(=O)[C@H](CC(=O)O)NC(=O)CNC1=O [12 b, c(RGDw(7‐3Ptz^2))] stands at 5.68

====

- targetSystem: human αvβ3 integrin (Homo sapiens, UniProt P05106+P06756)
- assayComment: ELISA-like solid-phase integrin binding assay
quantityKind: log10 IC50 (log10 of the value in nM)
// stored as log10 of IC50 expressed in nM

1. CN1C(=O)[C@H](CC(=O)O)NC(=O)CNC(=O)[C@H](CCCNC(=N)N)NC(=O)CN2c3ccccc3Sc3cc(ccc32)-c2cccc3c(c[nH]c23)C[C@H]1C(N)=O [12 f, c(RGD(NMe)W(7‐3Ptz^1))] ... 3.66

For reference, reported log10 IC50 for N=C(N)NCCC[C@@H]1NC(=O)CN2c3ccccc3Sc3cc(ccc32)-c2cccc3c(c[nH]c23)C[C@@H](C(N)=O)NC(=O)[C@H](CC(=O)O)NC(=O)CNC1=O [12 c, c(RGDW(7‐3Ptz^1))] stands at 2.49

For reference, reported log10 IC50 for N=C(N)NCCC[C@@H]1NC(=O)CN2c3ccccc3Sc3cc(ccc32)-c2cccc3c(c[nH]c23)C[C@H](C(N)=O)NC(=O)[C@H](CC(=O)O)NC(=O)CNC1=O [12 d, c(RGDw(7‐3Ptz^1))] stands at 2.89

For reference, reported log10 IC50 for CN1C(=O)[C@H](CC(=O)O)NC(=O)CNC(=O)[C@H](CCCNC(=N)N)NC(=O)CCCCCN2c3ccccc3Sc3cc(ccc32)-c2cccc3c(c[nH]c23)C[C@H]1C(N)=O [12 e, c(RGD(NMe)W(7‐3Ptz^2))] stands at 3.82

For reference, reported log10 IC50 for N=C(N)NCCC[C@@H]1NC(=O)CCCCCN2c3ccccc3Sc3cc(ccc32)-c2cccc3c(c[nH]c23)C[C@H](C(N)=O)NC(=O)[C@H](CC(=O)O)NC(=O)CNC1=O [12 b, c(RGDw(7‐3Ptz^2))] stands at 2.78

For reference, reported log10 IC50 for N=C(N)NCCC[C@@H]1NC(=O)CCCCCN2c3ccccc3Sc3cc(ccc32)-c2cccc3c(c[nH]c23)C[C@@H](C(N)=O)NC(=O)[C@H](CC(=O)O)NC(=O)CNC1=O [12 a, c(RGDW(7‐3Ptz^2))] stands at 2.52

====

- targetSystem: human α5β1 integrin (Homo sapiens, UniProt P05556+P08648)
- assayComment: ELISA-like solid-phase integrin binding assay
pIC50: −log10 of the molar value.
quantityKind: pIC50

Example cases with answers are listed next.
1) N#CC(C#N)=Cc1ccc2c(c1)Sc1cc3ccc1N2CCCCCC(=O)N[C@@H](CCCNC(=N)N)C(=O)NCC(=O)N[C@@H](CC(=O)O)C(=O)N[C@@H](C(N)=O)Cc1c[nH]c2c-3cccc12 [12 g, c(RGDw(7‐3Ptz^2(CH(CN)2))] ... < 5.00
2) CN1C(=O)[C@H](CC(=O)O)NC(=O)CNC(=O)[C@H](CCCNC(=N)N)NC(=O)CN2c3ccccc3Sc3cc(ccc32)-c2cccc3c(c[nH]c23)C[C@H]1C(N)=O [12 f, c(RGD(NMe)W(7‐3Ptz^1))] ... < 5.00

For reference, reported pIC50 for N=C(N)NCCC[C@@H]1NC(=O)CN2c3ccccc3Sc3cc(ccc32)-c2cccc3c(c[nH]c23)C[C@H](C(N)=O)NC(=O)[C@H](CC(=O)O)NC(=O)CNC1=O [12 d, c(RGDw(7‐3Ptz^1))] stands at < 5.00
